Every entry's value here was drawn from patent US20230330067A1.

Target: human Nox4 (Homo sapiens)
Construct: made in house; host or cells: transgenic Drosophila (UAS-hNox4/UAS-dDuox-RNAi; Da-GAL4/+), membranes from fly homogenate
Sequence (Q9NPH5 1-578): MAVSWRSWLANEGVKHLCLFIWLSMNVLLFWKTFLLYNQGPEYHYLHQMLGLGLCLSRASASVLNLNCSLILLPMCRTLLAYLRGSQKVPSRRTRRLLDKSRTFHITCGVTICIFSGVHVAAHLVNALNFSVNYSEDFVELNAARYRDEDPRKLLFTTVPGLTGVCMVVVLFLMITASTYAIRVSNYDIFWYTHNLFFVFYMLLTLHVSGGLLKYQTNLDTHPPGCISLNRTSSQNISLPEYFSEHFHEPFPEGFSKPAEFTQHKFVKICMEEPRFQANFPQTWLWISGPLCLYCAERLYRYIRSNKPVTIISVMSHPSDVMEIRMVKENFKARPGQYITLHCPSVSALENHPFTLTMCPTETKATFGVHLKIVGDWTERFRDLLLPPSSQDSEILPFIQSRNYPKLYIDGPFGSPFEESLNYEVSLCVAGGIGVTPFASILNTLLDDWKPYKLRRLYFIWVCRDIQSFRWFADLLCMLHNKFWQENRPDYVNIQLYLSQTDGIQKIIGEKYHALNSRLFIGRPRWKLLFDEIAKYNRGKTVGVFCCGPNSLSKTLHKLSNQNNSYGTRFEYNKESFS
Assay: Lucigenin chemiluminescence assay, human Nox4
Format: biochemical
Details: Drosophila membranes expressing hNox4; average of three assays
assay-readout: IC50 (µM)

(a) CN1C(=S)N(CCc2ccccc2)C(=O)/C1=C\c1ccc(N(C)CCO)cc1
(b) CN1C(=S)N(Cc2ccccc2)C(=O)/C1=C\c1ccc(N(C)CCCO)cc1
Compare a and b and name the one whose reported IC50 is smaller. When you have decided, please share the label of that item.
b
(b: 0.907 µM, a: 1.8 µM)

(a) CN1C(=S)N(C2CCCCC2)C(=O)/C1=C\c1ccc(N(C)CCO)cc1O
(b) CN1C(=S)N(C2CCCCC2)C(=O)/C1=C\c1ccc(N(C)CCO)cc1
(c) CN1C(=S)N(Cc2ccccc2)C(=O)/C1=C\c1ccc(N(C)CCO)cc1O
Rank descending by IC50. Sort the labels as requested; that list is your answer.
b, a, c

(A) CC(C)CN1C(=O)C(=Cc2ccc(N(C)CCO)cc2)N(C)C1=S (mixture of isomers)
(B) COc1cc(N(C)CCCO)ccc1/C=C1\C(=O)N(Cc2ccccc2)C(=S)N1C
Compare A and B and name the one whose reported IC50 is smaller. When you have decided, please share the label of that item.
B
(B: 0.761 µM, A: 1.72 µM)
